Biological target: Phospholipid hydroperoxide glutathione peroxidase GPX4 (Homo sapiens)
Assay: Primary qHTS Assay for Inhibitors of Recombinant Selenoprotein Glutathione Peroxidase 4 (GPX4) (AID 1845192); also: nearly all actives have a fitted effect of over 65% in size
Conditions: recombinant GPX4, GR-coupled NADPH fluorescence, 15 min; series mostly up to 50 µM
Inconclusive results are not listed. Calls of active or inactive are those of the source. Calls follow the shape of the dose curve; as a rule, active = well fitted inhibition curve with a large enough effect; inconclusive = small, poorly fitted or top-dose-only effect; inactive = flat fitted curve, though single readings scatter.
measured.parameter: activity change, negative = inhibition

Past entries and their recorded results:
{"columns": ["compound", "activity change, negative = inhibition"],
 "data": [
  ["COC(=O)C[C@H]1C(C)(C)[C@H](OC(C)=O)C2CC3=C4CC(=O)O[C@@H](c5ccoc5)[C@]4(C)CCC3[C@@]1(C)C2=O (stereo not given in full)", "inactive"],
  ["C[C@@]1(O)[C@H](O)[C@@H](CO)O[C@H]1n1ccc(N)nc1=O", "inactive"],
  ["COC(=O)C1=COC(OC2OC(CO)C(O)C(O)C2O)C2C1C=CC2(O)CO (stereo not given)", "inactive"],
  ["CC1(C)CCCC2(C)C1CC(=O)C13CC(CCC12)C(O)(CO)C3 (stereo not given)", "inactive"]
]}

Now consider the entry below.
Query: activity change, negative = inhibition; subject: COC(=O)CC1CC(c2ccc(O)cc2)=NO1 (stereo not given) inactive

Data provenance: PubChem BioAssay (NCATS)
